Test target: wild type human RORγt ligand binding domain (RORγt LBD) (Homo sapiens, UniProt P51449)
Construct: His-tag (N); TurboTEV protease cleavage site (ENLYFQG) (N)
Sequence (P51449 269-508 limits assumed): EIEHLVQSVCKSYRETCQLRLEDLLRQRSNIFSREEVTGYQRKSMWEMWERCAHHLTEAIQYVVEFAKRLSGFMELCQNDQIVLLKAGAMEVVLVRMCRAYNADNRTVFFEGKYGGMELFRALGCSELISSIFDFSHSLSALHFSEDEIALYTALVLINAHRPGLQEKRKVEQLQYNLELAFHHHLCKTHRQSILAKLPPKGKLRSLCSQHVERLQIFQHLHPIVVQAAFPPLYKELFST
Assay summary: RORγt ThermoFluor® Assay (thermal shift, binding affinity)
Condition set: pH 7.0, estimated from concentration response curves
pKd: −log10 of the molar value.
Assay readout: pKd

{"Compound": "COc1nc2ccc(C(O)(c3cnnn3C)c3cnc(C)n3C)cc2c(Cl)c1-c1ccccc1 (centres unmarked) [Example 41a]", "Numeric result": 7.05}
{"Compound": "COc1nc2ccc(C(O)(c3cncn3C)C3CCN(C(C)=O)CC3)cc2c(Cl)c1-c1cccc(C(F)(F)F)c1 (single isomer, unassigned) [Example 1b]", "Numeric result": 6.89}
{"Compound": "COc1nc2ccc(C(O)(c3ccc(C(F)(F)F)nc3)c3cncn3C)cc2c(Cl)c1-c1ccc(Cl)s1 (single isomer, unassigned) [Example 14b]", "Numeric result": 8.28}
{"Compound": "CN(C)c1c(-c2ccccc2)c(Cl)nc2ccc(C(O)(c3ccccn3)c3cncn3C)cc12 (centres unmarked) [Example 85]", "Numeric result": 4.70}
{"Compound": "CC(=O)N1CCC(C(O)(c2ccccc2)c2cc(C)c3nc(C#N)c(-c4ccccc4)c(C#N)c3c2)CC1 (single isomer, unassigned) [Example 21b]", "Numeric result": 5.89}
{"Compound": "COCCN(C)c1nc2ccc(C(O)(c3ccc(Cl)cc3)c3cncn3C)cc2c(Cl)c1-c1ccccc1 (centres unmarked) [Example 50]", "Numeric result": 7.05}
{"Compound": "OC(c1ccccc1)(c1ccc2nc(Cl)c(-c3ccccc3Cl)c(Cl)c2c1)c1ncco1 (centres unmarked) [Example 74]", "Numeric result": 4.96}
{"Compound": "CN(C)c1nc2ccc(C(c3ccc(Cl)cc3)c3cncn3C)cc2c(Cl)c1-c1ccccc1 (centres unmarked) [Example 71]", "Numeric result": 5.66}
{"Compound": "CCCCc1c(-c2ccccc2)c(OC(C)C)nc2ccc(C(O)(c3ccncc3)c3cncn3C)cc12 (centres unmarked) [Example 80]", "Numeric result": 4.92}
{"Compound": "COc1c(-c2ccccc2)c(C(F)(F)F)nc2ccc(C(O)(c3ccc(Cl)cc3)c3cncn3C)cc12 (centres unmarked) [Example 33a]", "Numeric result": 6.80}
{"Compound": "COc1nc2ccc(C(O)(c3sc(C)nc3C)c3cnnn3C)cc2c(Cl)c1-c1ccccc1 (centres unmarked) [Example 35]", "Numeric result": 7.74}
{"Compound": "CSc1nc2ccc(C(O)(c3sc(C)nc3C)c3cncn3C)cc2c(SC)c1-c1ccccc1 (centres unmarked) [Example 42]", "Numeric result": 9.29}
{"Compound": "CSc1nc2ccc(C(O)(c3sc(C)nc3C)c3cncn3C)cc2c(Cl)c1-c1ccccc1 (centres unmarked) [Example 43]", "Numeric result": 8.46}
{"Compound": "Cc1nc(C)c(C(O)(c2ccc3nc(C#N)c(-c4ccccc4)c(C#N)c3c2)c2cnnn2C)s1 (single isomer, unassigned) [Example 47c]", "Numeric result": 8.72}

These data points were gathered from patent EP3057950B1.
